# Test system: USA_WA1/2020 SARS CoV-2
# Measurement protocol: microbe, parasite or virus in culture
# Assay type: cell-based
# Condition info: Severe acute respiratory syndrome coronavirus 2, Vero C1008, 72 h, read-out: SARS-2 EC50 (μM) VeroE6
# EC50 listing for each entry below
Number only, in µM; omit the unit.

# Compound, EC50 / µM
measured = [
    ("CC1(NC(=O)c2ccc(NC(=O)c3cccc(C#Cc4ccccn4)c3)cc2)CC1 [Compound 61]", 0.71),
    ("CC(=O)Nc1ccc(C(=O)Nc2cccc(C#Cc3ccccn3)c2)cc1O [Compound 30]", 4.37),
    ("CC(=O)Nc1ccc(C(=O)Nc2cccc(C#Cc3ccccn3)c2)cc1 [Compound 5]", 3.89),
]

Continue with the compound presented below.
Value lookup for EC50; key = CN1C(=O)CCc2cc(C(=O)Nc3cccc(C#Cc4ccccn4)c3)ccc21 [Compound 2] 2.55

These measurements were taken from patent US11905306B2.
